tested on: Leishmania donovani; experiment: GSK_TCAKS: pIC50 Leishmania donovani Imaging: Infected Macrophages. Assay plates (384-well) were prepared by adding 250nL of compound to each well. For single shot assay, the final compound concentration was 5 uM. […] Automated image analysis was performed with a script developed on Acapella High Content Imaging and Analysis Software (PerkinElmer). Output: Percent of infected macrophage cells were reported for each well.; format: functional, organism-based, Homo sapiens; settings: THP-1
quantityName: IC50

These solved cases illustrate the format of a correct answer.
>>> val("COc1cc(-c2noc(CC#N)n2)ccc1OC(F)F")
"> 50.1 µM"
>>> val("CN(C)Cc1ccc(-c2ccc(S(=O)(=O)NCC3CCCO3)c(F)c2)cc1 (stereo not given)")
"> 63.1 µM"
>>> val("O=C(Cc1ccccc1)Nc1ccccc1C(=O)Nc1nccs1")
"> 50.1 µM"

State recorded IC50 for all listed compounds.
1. Cc1occc1C(=O)Nc1ccccc1C(=O)Nc1nccs1
2. Cc1nn(-c2nc3ccccc3s2)c2c1C(c1ccc(OCC(N)=O)cc1)SCC(=O)N2 (stereo not given)

[reply]
1. > 50.1 µM
2. > 50.1 µM
